Reference source for all entries: ChEMBL document CHEMBL1926604

- assay-text: Half life in rat at 10 umol/kg, iv
- Type: ADME, organism-based
- measurement-setup: in vivo, 10 umol/kg
Each entry below lists one item and its recorded half-life value.
Provide the reading as a plain figure in h.

In the examples that follow, each entry is paired with its recorded half-life.
1) COc1ccc(N(Cc2cnccc2C)C2CCN([C@H](C)CCNC(=O)c3c(C)ccnc3Cl)CC2)cc1 : 3
2) CC(CCNC(=O)c1c(Cl)cncc1Cl)N1CCC(N(Cc2cccc(C#N)c2)c2ccc(OC(F)(F)F)cc2)CC1 (stereo unspecified) : 5
3) COCCOc1ccc(N(Cc2cnccc2C)C2CCN([C@H](C)CCNC(=O)c3c(C)cc(Cl)nc3C)CC2)cc1 : 1.7

Entry under review: CC(CCNC(=O)c1c(Cl)cncc1Cl)N1CCC(N(Cc2ccccc2)c2ccc(Oc3ccc(C(=O)O)cc3)cc2)CC1 (stereo unspecified) . Reported half-life?
4.8

Another compound to check: COc1ccc(N(Cc2cnccc2C)C2CCN([C@H](C)CCNC(=O)c3c(C)cc(F)nc3C)CC2)cc1
3.3

Another compound to check: COc1ccc(N(Cc2cnccc2C)C2CCN([C@H](C)CCNC(=O)c3c(C)cc(Cl)nc3C)CC2)cc1
10
